Target: recombinant human Hsp90α (Homo sapiens, UniProt P07900)
Construct: purchased Abcam
Test: SPR binding to immobilized recombinant Hsp90α
Conditions: Biacore 3000, immobilized full length Hsp90α, 25 °C, 1:1 Langmuir model, read-out: KD (nM) ± SD
Kd strictly under 10 nM means Criterion met; at 10 nM or over means Criterion not met.

Solved entries (count: 10):
COMPOUND | ASSIGNED LABEL
O=C(CCCCCn1c(=O)[nH]c2ccccc2c1=O)NCCN1CCOCC1 [Compound 12] | Criterion not met
O=C(CCCCCn1c(=O)[nH]c2ccccc2c1=O)Nc1ccc(Br)cc1F [Compound 10] | Criterion not met
Cc1cc(C)c2c(C)cc3nnc(SCCCN4C(=O)c5ccccc5C4=O)n3c2c1 [Compound 5] | Criterion not met
NC(=O)c1ccccc1NC(=O)CCCCCN1C(=O)c2ccccc2C1=O [Compound 1] | Criterion met
COc1ccc(NCC(=O)Nc2ncc(Cc3cccc4ccccc34)s2)cc1 [Compound 9] | Criterion not met
COC(=O)c1ccc(Oc2c[nH]nc2-c2ccc(OC)cc2O)cc1 [Compound 20] | Criterion not met
O=C(CNc1ccc(F)cc1)Nc1ncc(Cc2ccccc2F)s1 [Compound 8] | Criterion met
O=C(c1ccc2c(c1)OCO2)N1CCC(c2nc3ccccc3[nH]2)CC1 [Compound 26] | Criterion not met
O=C1c2ccccc2C(=O)N1CCSc1ncnc2scc(-c3ccc(Cl)cc3)c12 [Compound 4] | Criterion met
CN(CCc1ccncc1)C(=O)c1ccc(N2C(=O)CCS2(=O)=O)cc1 [Compound 22] | Criterion met

Lab note: next compound to report on.
query: # TODO verify Kd < 10 nM strictly for this compound: COC(=O)c1ccc(NC(=O)CCCCCn2c(=O)[nH]c3ccccc3c2=O)cc1 [Compound 13]
result: Criterion not met

Provenance of the data: paper PMC5786060
